study_system: Mitogen-activated protein kinase 8 (Homo sapiens)
Sequence (P45983 whole entry): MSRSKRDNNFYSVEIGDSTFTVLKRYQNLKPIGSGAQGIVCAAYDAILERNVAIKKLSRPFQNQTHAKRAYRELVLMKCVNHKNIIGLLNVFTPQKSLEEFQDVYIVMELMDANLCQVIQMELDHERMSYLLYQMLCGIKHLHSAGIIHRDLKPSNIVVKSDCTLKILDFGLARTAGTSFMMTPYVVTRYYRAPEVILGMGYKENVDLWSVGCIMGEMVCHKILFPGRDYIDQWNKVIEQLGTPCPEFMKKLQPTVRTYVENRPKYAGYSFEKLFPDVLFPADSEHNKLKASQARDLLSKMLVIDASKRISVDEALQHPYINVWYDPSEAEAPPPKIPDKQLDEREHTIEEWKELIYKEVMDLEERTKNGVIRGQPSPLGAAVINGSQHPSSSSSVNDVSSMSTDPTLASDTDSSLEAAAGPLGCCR
test_details: Inhibition of JNK1-alpha-1 (unknown origin)
quantity_kind: pIC50
API: returns pIC50 as number; meaning -log10 of concentration in mol/L.

Entry O=C(NCCCNc1cc(-c2cn(-c3ccccc3)nc2-c2cccc(O)c2)ccn1)Nc1ccc(F)cc1 , pIC50 reported as 6.00

---

Tested on: SF-295
test_details: Antiproliferative activity against human SF-295 cells measured after 48 hrs by SRB assay
Type: functional, cell-based
condition_label: SF-295, time 48 hrs
Catalogue of TGI values
Report the value in µM with no unit label.

Entry COc1cccc(-c2nn(-c3ccccc3)cc2-c2ccnc(NCCCNC(=O)Nc3ccc(F)cc3)c2)c1 , TGI reported as 21.7

Entry O=C1c2ccccc2-c2n[nH]c3cccc1c23 , TGI reported as 86.3

Entry O=C(NCCCNc1cc(-c2cn(-c3ccccc3)nc2-c2cccc(O)c2)ccn1)Nc1ccc(F)cc1 , TGI reported as 4.84

Entry O=C(NCCCNc1cc(-c2cn(-c3ccccc3)nc2-c2cccc(O)c2)ccn1)Nc1cccc(C(F)(F)F)c1 , TGI reported as 6.42

Entry O=C(Nc1ccc(Cl)c(C(F)(F)F)c1)N1CCN(c2cc(-c3cn(-c4ccccc4)nc3-c3cccc(O)c3)ccn2)CC1 , TGI reported as 7.25

---

Tested on: RXF 393
test_details: Antiproliferative activity against human RXF 393 cells measured after 48 hrs by SRB assay
Type: functional, cell-based
condition_label: RXF 393, time 48 hrs
quantity_kind: TGI

>>> print(df.to_string())
                                   compound  quantity_kind    result
0  O=C(Nc1ccc(Cl)c(C(F)(F)F)c1)N1CCN(c2cc(-c3cn(-c4ccccc4)nc3-c3cccc(O)c3)ccn2)CC1            TGI   9.79 µM
1  COc1cccc(-c2nn(-c3ccccc3)cc2-c2ccnc(NCCCNC(=O)Nc3ccc(F)cc3)c2)c1            TGI   28.6 µM
2  O=C(NCCCNc1cc(-c2cn(-c3ccccc3)nc2-c2cccc(O)c2)ccn1)Nc1cccc(C(F)(F)F)c1            TGI   4.96 µM
3            O=C1c2ccccc2-c2n[nH]c3cccc1c23            TGI  > 100 µM

Next up:
Reported TGI (RXF 393) for entry O=C(NCCCNc1cc(-c2cn(-c3ccccc3)nc2-c2cccc(O)c2)ccn1)Nc1ccc(F)cc1 is 4.85 µM

---

Tested on: OVCAR-5
test_details: Antiproliferative activity against human OVCAR-5 cells measured after 48 hrs by SRB assay
Format: functional, cell-based
condition_label: OVCAR-5, time 48 hrs
Catalogue of TGI values
Report the value in µM with no unit label.

Below are worked cases with known answers.
>>> print(df.to_string())
                                   compound  quantity_kind  endpoint_unit  recorded_number
0  O=C(Nc1ccc(Cl)c(C(F)(F)F)c1)N1CCN(c2cc(-c3cn(-c4ccccc4)nc3-c3cccc(O)c3)ccn2)CC1            TGI             µM             10.5
1  O=C(NCCCNc1cc(-c2cn(-c3ccccc3)nc2-c2cccc(O)c2)ccn1)Nc1cccc(C(F)(F)F)c1            TGI             µM             9.71
2            O=C1c2ccccc2-c2n[nH]c3cccc1c23            TGI             µM             85.5

Reported TGI (OVCAR-5) for entry O=C(NCCCNc1cc(-c2cn(-c3ccccc3)nc2-c2cccc(O)c2)ccn1)Nc1ccc(F)cc1 is 9.12
